These data points were gathered from PubChem BioAssay (NCI).

- System: XF 498 CNS
- measurement_description: NCI tumour cell line growth inhibition, 48 h
endpoint_name: TGI

>>> reported_result("O=S(c1ccc(O)cc1)c1ccc(O)cc1")
"> 100 µM"

Exercise: // map "CCN(CC)C(=O)Cc1[nH][nH]c(=O)c1C(=O)N(CC)CC" to recorded TGI (system: XF 498 CNS)
Solution: > 100 µM

Exercise: Also check O=C1c2c(c3c4ccccc4n(CC4CO4)c3c3[nH]c4ccccc4c23)C(=O)N1Cc1ccccc1 (stereo not drawn)
Solution: > 100 µM

====

Here the recorded TGI is given for each entry.
- System: OVCAR-8 ovarian
- measurement_description: NCI tumour cell line growth inhibition, 48 h

Field: example entries. Status: answers known.
>>> reported_result("O=C(OC[C@H]1C[C@H]2C(=O)OCCC[C@H]2O1)c1ccccc1")
"> 100 µM"
>>> reported_result("CC1=C(\\C=C/C(C)=C/C=C/C(C)=C/C=C/C=C(C)\\C=C\\C=C(C)/C=C/C2=C(C)CCCC2(C)C)C(C)(C)CCC1")
"> 100 µM"
>>> reported_result("Cc1csc(NCc2ccc(Cl)cc2)n1")
"> 100 µM"
>>> reported_result("Cc1ccc(-c2ccc3c(c2)Sc2ccccc2O3)n1C")
"> 100 µM"

Now for the compound whose TGI we want.
Exercise: What does the data say about its TGI? Entry: N#CC1=C(N)OC2=C(CCCc3ccc([N+](=O)[O-])cc32)C1c1ccc(Cl)cc1 (stereo not given)
Solution: 62.6 µM

====

- System: ACHN renal
- measurement_description: NCI tumour cell line growth inhibition, 48 h
endpoint_name: log10 of TGI (log10 of the value in µM)
Units before log transform: µM; reported quantity: TGI; transform: log10.

>>> reported_result("CO[C@H]1C[C@H](O[C@H]2CC[C@@]3(C)[C@H](CC[C@@H]4[C@@H]3CC[C@]3(C)[C@@H](C5=CC(=O)OC5)CC[C@]43O)C2)O[C@H](C)[C@H]1O")
-2.00
>>> reported_result("COc1cccc(/C=C\\C(=O)c2ccccc2)c1")
1.37
>>> reported_result("CCOC(=O)c1c(N2CCN(C)CC2)[nH]c(=O)c(C(c2c(Cl)cccc2Cl)c2c(O)c(C(=O)OCC)c(N3CCN(C)CC3)[nH]c2=O)c1O")
1.63
>>> reported_result("COc1ccc(Cl)cc1NC(=O)O/N=C(\\Cl)C(C)C")
0.62

Now for the compound whose log10 of TGI we want.
Exercise: What does the data say about its log10 of TGI? Entry: COc1oc(C2C/C(=C/C(C)=C/C(C)=C/C(C)=C/c3ccc([N+](=O)[O-])cc3)CO2)c(C)c(=O)c1C (centres undefined)
Solution: 0.82

====

- Test system: UO-31 renal
- measurement_description: NCI tumour cell line growth inhibition, 48 h; in the data active = GI50 below about 0.43 µM; inactive = the rest
Outcome (select one): class 1 for active, class 0 for inactive

Please review the following examples before continuing.
>>> class_assignment("COc1cc(F)c(F)c(Nc2ccc(I)cc2F)c1NS(=O)(=O)C1(CC(O)CO)CC1 (stereo not drawn)")
"class 0"
>>> class_assignment("CC[C@H](C)[C@H](NC(=O)CN(C)C)C(=O)N(C)[C@H](C[C@@H](OC(C)=O)c1nc(C(=O)NC23C4C5C2C2C3C4C52C(=O)OC)cs1)C(C)C (stereo partly drawn)")
"class 0"
>>> class_assignment("O=C1c2ccccc2-c2cn(Cc3ccccc3)c3cccc(c23)C1c1cccnc1 (stereo not drawn)")
"class 0"

Exercise: Just curious, what result did "ClC/C=C/CSc1ncnc2nc[nH]c12" get here?
Solution: class 0

Exercise: Also check "Cc1ccc2nc(CN(CCN(Cc3nc4ccc(C)cc4[nH]3)Cc3nc4ccc(C)cc4[nH]3)Cc3nc4ccc(C)cc4[nH]3)[nH]c2c1"
Solution: class 0

Exercise: Also check "O=C(c1ccccc1)c1nn(-c2cccc(Cl)c2)c2nc3nc(-c4ccccc4)cc(=O)n3nc12"
Solution: class 0

Exercise: Also check "N#Cc1cnn(C(=O)c2nn(-c3ccc(Cl)cc3)cc2O)c1N"
Solution: class 1

Exercise: Also check "O=C(O)CCCCCNCc1cc2cc3c(cc2c2cc(OCc4ccccc4)ccc12)OCO3"
Solution: class 0

====

Here the recorded TGI is given for each entry.
- Test system: U251 CNS
- measurement_description: NCI tumour cell line growth inhibition, 48 h

Field: example entries. Status: answers known.
>>> reported_result("CCC(CCCC[C@H]1CC[C@@H]2CC(=O)C[C@H]12)OC (some centres undefined)")
"> 100 µM"
>>> reported_result("O=S(c1ccc(O)cc1)c1ccc(O)cc1")
"> 100 µM"
>>> reported_result("N#CCCN(C(=O)Nc1ccc(NC(=O)N(CCC#N)c2ccccc2)cc1)c1ccccc1")
"> 100 µM"

Exercise: What does the data say about its TGI? Entry: "COc1ccc(/C=C\c2cc(OC)c(OC)c(OC)c2)cc1NC(=O)/C=C/c1cc(OC)c(OC)c(OC)c1"
Solution: > 100 µM

Exercise: Also check "O=C1CC2(CCN(Cc3ccccc3)CC2)C(=O)N1N1CCCCC1"
Solution: > 100 µM

Exercise: Also check "COC(=O)c1sc(-n2cnc3cc(OC)c(OC)cc32)cc1OCc1ccccc1C(F)(F)F"
Solution: > 25 µM

Exercise: Also check COc1cc2c(c(O)c1OC)C(O)C1CCC(=O)N1C2c1ccc2c(c1)OCO2 (centres undefined)
Solution: > 100 µM

Exercise: Also check "Cc1n[nH]c(=O)c2c3c([nH]c12)-c1ccccc1C3"
Solution: > 100 µM

====

- Tested on: RXF 393 renal
- measurement_description: NCI tumour cell line growth inhibition, 48 h; in the data active = GI50 below about 0.43 µM; inactive = the rest
Outcome (select one): active, inactive

Please review the following examples before continuing.
>>> class_assignment("CCc1ccc([OH2+])c(C(=O)[O-])c1.CCc1ccc([OH2+])c(C(=O)[O-])c1.CCc1ccc([OH2+])c(C(=O)[O-])c1.CCc1ccc([OH2+])c(C(=O)[O-])c1.[Cu+2].[Cu+2]")
"inactive"
>>> class_assignment("C=CC[PH+](c1ccccc1)c1ccccc1.C=CC[PH+](c1ccccc1)c1ccccc1.[Pt+2].[S-]c1nc2ccccc2[nH]1.[S-]c1nc2ccccc2[nH]1")
"inactive"
>>> class_assignment("O=C(/C=C/c1ccco1)Nc1ncc(Cc2cc(Cl)ccc2Cl)s1")
"active"

Exercise: Just curious, what result did C=C1C(C)C2C(Cc3ccccc3)NC(=O)C23C(OC(C)=O)C=CC(C)(O)C(=O)C(C)C/C=C/C3C1O (stereo unspecified) get here?
Solution: active

Exercise: Also check "O=C1c2ccc3c4c(ccc(c24)C(=O)N1CCCCO)C(=O)N(CCCCO)C3=O"
Solution: inactive

Exercise: Also check COc1cc(/C=N/NC(=O)c2cnn3c2NC(c2ccccc2)C3)ccc1OCc1ccccc1 (stereo unspecified)
Solution: inactive

Exercise: Also check "COc1cccc(/C=C\C(=O)c2ccccc2)c1"
Solution: inactive

====

- Tested on: SF-539 CNS
- measurement_description: NCI tumour cell line growth inhibition, 48 h
endpoint_name: TGI (µM)
Number in µM, nothing else.

Field: example entries. Status: answers known.
>>> reported_result("COc1ccc(Cl)cc1NC(=O)O/N=C(\\Cl)C(C)C")
29.4
>>> reported_result("CO[C@H]1C[C@H](O[C@H]2CC[C@@]3(C)[C@H](CC[C@@H]4[C@@H]3CC[C@]3(C)[C@@H](C5=CC(=O)OC5)CC[C@]43O)C2)O[C@H](C)[C@H]1O")
0.0138
>>> reported_result("O=[N+]([O-])c1ccc(N=P(c2ccccc2)(c2ccccc2)c2ccccc2)n2nnnc12")
50.9
>>> reported_result("Oc1ccccc1/C=N\\NC(=S)Nc1ccc(F)cc1")
32.3
>>> reported_result("Cc1cccc(NC(=S)NNC(=O)c2cc(-c3ccccc3)nc3ccccc23)c1")
58.9

Exercise: What does the data say about its TGI? Entry: "O=C(O)CCCCCNCc1cc2cc3c(cc2c2cc(OCc4ccccc4)ccc12)OCO3"
Solution: 3.62

Exercise: Also check "COC(=O)c1sc2c(c1C(=O)OC)C(=Nc1ccc(OC)cc1)SC2=Nc1ccc(OC)cc1"
Solution: 0.889

Exercise: Also check "c1cc(CSP234N5CCN2CCN3CCN4CC5)cc(CSP234N5CCN2CCN3CCN4CC5)c1"
Solution: 55.5

Exercise: Also check "CCCNC(=O)c1cc(OC)c(OC)cc1NC(=O)C12CC3CC(CC(C3)C1)C2"
Solution: 46.9

====

- Test system: HCT-15 colon
- measurement_description: NCI tumour cell line growth inhibition, 48 h
TGI vs 10 µM: at or above is 1, below is -1.

Please review the following examples before continuing.
>>> class_assignment("Nc1nc(SCC#CCCl)c2[nH]cnc2n1")
1
>>> class_assignment("N#Cc1c(N)oc2cc3c(C#N)c(N)oc3cc12")
1
>>> class_assignment("O=C(c1ccccc1)c1nn(-c2cccc(Cl)c2)c2nc3nc(-c4ccccc4)cc(=O)n3nc12")
1

Exercise: Hi, just wondering whether "CC(C)(C)n1cc(-c2ccnc(NCCCNS(=O)(=O)c3cccc4ccccc34)c2)c(-c2cccc(O)c2)n1" shows TGI of 10 µM or higher.
Solution: -1

Exercise: Also check "N#Cc1cnn(C(=O)c2nn(-c3ccc(Cl)cc3)cc2O)c1N"
Solution: 1

Exercise: Also check "ClC/C=C/CSc1ncnc2nc[nH]c12"
Solution: 1
